testTarget: T1, human C5 R885C-mmh (human, UniProt P01031 19-1676)
T1 construct: also called human C5 variant R885C
assayNotes: SPR, mAb captured via anti-hFc, 37C
Kindly state 100 nM Human C5 R885C-mmh Bound (RU) for each of the entries shown.

[
  {
    "binder": "H4H12169P (antibody, human IgG4, V domains shown, Human IgG4 Fc with S108P hinge mutation (H4H)) VH: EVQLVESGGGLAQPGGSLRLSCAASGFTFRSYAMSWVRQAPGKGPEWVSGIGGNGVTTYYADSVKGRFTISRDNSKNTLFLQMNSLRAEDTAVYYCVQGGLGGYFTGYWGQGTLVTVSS VL: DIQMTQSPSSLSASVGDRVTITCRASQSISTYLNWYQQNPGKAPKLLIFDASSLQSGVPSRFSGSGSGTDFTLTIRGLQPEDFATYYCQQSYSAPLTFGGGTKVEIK",
    "assayValue": "75 RU"
  }
]

Attention now turns to another entry.
**Query** Which value of 100 nM Human C5 R885C-mmh Bound (RU) has been reported for H4H12164P (antibody, human IgG4, V domains shown, Human IgG4 Fc with S108P hinge mutation (H4H)) VH: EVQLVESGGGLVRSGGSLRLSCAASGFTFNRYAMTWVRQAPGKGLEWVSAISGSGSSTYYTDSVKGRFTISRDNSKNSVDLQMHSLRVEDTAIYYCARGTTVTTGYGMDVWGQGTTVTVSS VL: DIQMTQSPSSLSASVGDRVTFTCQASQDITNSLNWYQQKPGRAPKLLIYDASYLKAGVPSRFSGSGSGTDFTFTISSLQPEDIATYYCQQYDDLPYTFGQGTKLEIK in the records?
**Result** 64 RU
